Please go through the items and note down their Live Neut, WA1/2020 IC50 (pM).
- target_of_assay: SARS-CoV-2 spike protein on live virus, strain USA-WA1/2020 (SARS-CoV-2, WA01/2020 strain, UniProt P0DTC2 14-1273)
- experiment_summary: cell-based or functional assay

binder	outcome_measure	experimental_value
antibody 2794 (antibody, V domains shown) VH: QVQLVQSGAEVKKPGSSLKVSCKASGGTFNNFAISWVRQAPGQGPEWMGRINPILSAAKYAQKFQGRLTITADKSTTTAYMELSSLRSEDTAVYYCAPTGTGESWWFDPWGQGTLVTVSS VL: QSVLTQPPSASGTPGQRVTISCSGSSSNIGTNYVYWYQQLPGTAPKVLIYGNNQRPSGVPDRFSGSKSGSSASLAISGLRSEDEADYYCAAWDDSLSGPVFGGGTKLTVL	Live Neut, WA1/2020 IC50 (pM)	17 pM

Then this binder:
Problem: Fill in the blank: the reported Live Neut, WA1/2020 IC50 (pM) of antibody 2793 (antibody, V domains shown) VH: QVQLVQSGAEVKKPGASVKVSCKVSGFTLPELSIHWVRQAPGKGLEWMGGFDPEDAKTIYAQKFQGRVTMTEDTSTDIAYMELNSLRSDDTAVYYCATGSPFGVVGNWLDPWGQGTLVTVSS VL: QSALTQPASVSGSPGQSITISCTGTSSDVGDFSYVSWYQQHPGKAPKLMIYEVTKRPSGVSNRFSGSKSGNTASLTISGLQTEDEADYYCTSYTSSRLVLFGGGTKLTVL is ____.
Solution: 77 pM
